# assayed target: T1, Biotin-labeled CD3 epsilon peptide antigen (human, also: biotin-labeled, site not given here)
# T1 construct: also called CD3 peptide
# T1 peptide: QDGNEEMGGITQTPY
# protocol: bead ELISA, IgG on biotinylated CD3 epsilon peptide, luminescence
Where no end group is shown, it is not given here.
observed property: S/N ratio (CD3 peptide/non coating)
I only need the number, thanks.

Requested field: S/N ratio (CD3 peptide/non coating). Item: DADU01_3#002 (antibody, V domains shown, Human IgG1; light chain GLS3000 (kappa); also called dBBDu124) VH: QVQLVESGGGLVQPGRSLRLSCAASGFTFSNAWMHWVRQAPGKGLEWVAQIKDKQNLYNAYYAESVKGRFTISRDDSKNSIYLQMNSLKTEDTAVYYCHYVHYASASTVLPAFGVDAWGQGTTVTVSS VL: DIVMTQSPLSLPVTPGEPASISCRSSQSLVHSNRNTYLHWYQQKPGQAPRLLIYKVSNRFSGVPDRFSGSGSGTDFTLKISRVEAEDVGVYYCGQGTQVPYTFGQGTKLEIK
156

The reported numbers originate from patent US20210388087A1.
